Attribute: % competition
target: T1, hHER3 full length (human, UniProt P21860 20-1342)
T1 construct: On transfected CHO, CHO HER2/HER3, CHO EGFR/HER3 or CHO Flp-In cells; endogenous HER3 of MCF-7 and MDA-MB468 cells in the signalling assays; also called human HER3
test-method-notes: FACS, 400 nM, competitor 21B02-biotin
reported-metric: % competition

# binder, recorded-value
measured = [
    ("17B05 (VHH, also called HER3MS17B05; HER3MS017B05) VHH: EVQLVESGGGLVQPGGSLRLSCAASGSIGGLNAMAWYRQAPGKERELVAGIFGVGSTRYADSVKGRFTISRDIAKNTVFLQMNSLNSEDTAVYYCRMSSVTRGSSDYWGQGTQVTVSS", "0%"),
    ("18G11 (VHH, c-myc, His6-tagged form as expressed; also called HER3MS18G11; HER3MS018G11) VHH: EVQLVESGGGLVQPGGSLRLSCAASGTLFKINAMGWYRQAPGKRRELVALITSSDTTDYAESVEGRFTISRDNTWNAVYLQMNSLKPEDTAVYYCHSDHYSMGVPEKRVIMYGQGTQVTVSS", "0%"),
    ("34A04 (VHH) VHH: EVQLVESGGGLVQAGGSLRLSCAASGFTFDDYTIGWFRQAPGKEREEISCISNNDGSTYYTNSVKGRFTISSDNAKNTVYLQMNSLKPEDTAVYYCAASPHGCWYDLIPLQADFGSWGQGTQVTVSS", "99%"),
    ("23F05 (VHH) VHH: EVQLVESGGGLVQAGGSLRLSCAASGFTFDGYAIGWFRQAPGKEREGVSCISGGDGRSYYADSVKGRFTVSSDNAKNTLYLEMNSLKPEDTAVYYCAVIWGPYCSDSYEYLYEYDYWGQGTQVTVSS", "100%"),
    ("04C07 (VHH, also called HER3MS04C07; HER3MS004C07) VHH: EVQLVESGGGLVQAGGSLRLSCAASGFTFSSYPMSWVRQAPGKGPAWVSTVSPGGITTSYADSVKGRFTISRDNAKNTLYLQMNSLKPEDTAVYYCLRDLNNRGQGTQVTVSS", "2%"),
    ("18F05 (VHH, also called 18F5) VHH: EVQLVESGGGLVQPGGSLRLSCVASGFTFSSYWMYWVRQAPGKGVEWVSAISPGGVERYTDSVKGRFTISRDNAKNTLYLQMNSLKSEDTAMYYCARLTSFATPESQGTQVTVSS", "0%"),
    ("21B02 (VHH) VHH: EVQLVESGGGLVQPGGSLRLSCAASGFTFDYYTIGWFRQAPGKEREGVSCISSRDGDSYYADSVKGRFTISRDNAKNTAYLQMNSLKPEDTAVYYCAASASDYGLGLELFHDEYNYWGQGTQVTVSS", "100%"),
    ("17E08 (VHH) VHH: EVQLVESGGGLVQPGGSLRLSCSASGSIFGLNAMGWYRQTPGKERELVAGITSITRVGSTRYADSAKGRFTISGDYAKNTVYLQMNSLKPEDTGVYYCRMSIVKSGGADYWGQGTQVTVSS", "5%"),
]
